FYI, the data here is from PubChem BioAssay AID1159580.

For each record, write down the corresponding normalized growth.
experiment-summary: chemical genetic growth profiling, strain panel (AID 1159580);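 also: tested at 20 µM; growth read once vehicle control cultures reached saturation at 30 °C; 1 = growth at the plate median or of vehicle wells; lower values mean less growth of the strain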
experimental-parameters: S. cerevisiae deletion strains, growth OD, locus YOR136W, strain idh2, hits give low values
About 2,000 (36%) of roughly 5,500 compounds were called active. Another 18% or so got no clear call; they are omitted. The list shows a part of the results.
A bare number is all that is needed in reply.

response.value for "NC12CC3CC(CC(C3)C1)C2" (field: normalized growth) = 1.03

So, "O=c1oc2cc(O)ccc2s1" ? Its normalized growth was 0.972

According to the records, this compound "CC(=O)NCc1c(I)c(NC(C)=O)c(I)c(C(=O)O)c1I" displays normalized growth of 0.999

The recorded normalized growth for C#C[C@]1(O)CCC2C3CCC4=CC(=O)CC[C@@H]4C3CC[C@@]21CC (stereo not given in full) is 0.991

The recorded normalized growth for entry CCC(C)C(=O)O[C@H]1[C@H](O)C2C(CN3CC(C)CCC3[C@@]2(C)O)C2C[C@]34O[C@]5(O)C(OC(=O)C(C)(O)CC)CC[C@@]3(C)C5C(OC(C)=O)[C@@H](OC(C)=O)C4[C@@]21O (stereo not given in full) equals 0.984
